experiment: in vitro; assay type: cell-based; settings: human
Property: IC50 at 3 days

Challenge: # input compound: COc1nc(OC(F)(F)F)c(NC(=O)C2CCC3C4CN(C(=O)OC(C)(C)C)C5=CC(=O)CC[C@]5(C)C4CC[C@]23C)cc1Br (stereo partly shown) ; wanted: its IC50 at 3 days
Response given: > 30 µM

====

molecular target: CYP3A4 (Homo sapiens); construct: using pooled male and female human liver microsomes; from tissue; host or cells: pooled human liver microsomes; assay: Inhibition of CYPs in human liver microsomes, CYP3A4; assay type: in vitro ADME; conditions: both sexes, human, microsomes, at 10 μM, testosterone as substrate; read-out: % Inhibition 3A4 (testosterone)
Property: inhibition at 10 µM (%)
Give the quantity in %, number only.

Challenge: Record COc1nc(OC(F)(F)F)c(NC(=O)C2CCC3C4CN(C(=O)OC(C)(C)C)C5=CC(=O)CC[C@]5(C)C4CC[C@]23C)cc1Br (stereo partly shown) : what is its inhibition at 10 µM with CYP3A4 (Homo sapiens)?
Response given: 30.5

====

assay: in vitro; assay type: in vitro ADME; conditions: human, Caco-2, pH 7.4, Efflux Ratio
Property: efflux ratio at 2 h, 5 μM
Simply state the number, no unit and no words.

Challenge: # input compound: CCCN1CC2C(CC[C@@]3(C)C2CC[C@@H]3C(=O)Nc2cc(C(C)(C)C)ccc2C(C)(C)C)[C@@]2(C)CCC(=O)C=C12 (some centres unmarked) [Compound 114] ; wanted: its efflux ratio at 2 h, 5 μM
Response given: 0.87

====

biological target: CYP3A4 (Homo sapiens, UniProt P08684)
Sequence (P08684 whole entry): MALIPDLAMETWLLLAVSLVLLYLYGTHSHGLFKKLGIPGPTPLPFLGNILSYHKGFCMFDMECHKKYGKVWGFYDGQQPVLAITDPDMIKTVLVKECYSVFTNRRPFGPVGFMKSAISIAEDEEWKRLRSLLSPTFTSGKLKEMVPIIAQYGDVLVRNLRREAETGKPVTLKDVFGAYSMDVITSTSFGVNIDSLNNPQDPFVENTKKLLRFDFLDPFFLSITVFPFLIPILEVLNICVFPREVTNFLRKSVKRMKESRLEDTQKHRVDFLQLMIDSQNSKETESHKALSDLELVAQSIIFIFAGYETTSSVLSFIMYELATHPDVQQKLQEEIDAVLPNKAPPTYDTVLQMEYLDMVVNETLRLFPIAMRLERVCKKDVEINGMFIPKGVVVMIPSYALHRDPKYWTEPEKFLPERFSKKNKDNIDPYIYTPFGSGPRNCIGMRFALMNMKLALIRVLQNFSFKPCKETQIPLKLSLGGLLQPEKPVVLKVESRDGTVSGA
pIC50: −log10 of the molar value.
Property: pIC50

Challenge: Record COc1nc(OC(F)(F)F)c(NC(=O)C2CCC3C4CN(C(=O)OC(C)(C)C)C5=CC(=O)CC[C@]5(C)C4CC[C@]23C)cc1Br (stereo partly shown) : what is its pIC50 with CYP3A4 (Homo sapiens, UniProt P08684)?
Response given: < 4.30

====

assay: in vivo; details: male, CD-1, mouse
Property: half-life

Challenge: # input molecule: COc1nc(OC(F)(F)F)c(NC(=O)C2CCC3C4CN(C(=O)OC(C)(C)C)C5=CC(=O)CC[C@]5(C)C4CC[C@]23C)cc1Br (stereo partly shown) ; wanted: its half-life
Response given: ~7 h

====

test: in vivo; conditions: male, CD-1, mouse, po, 5 mg/kg
Property: Tmax (h)
Give the quantity in h, number only.

Challenge: # input compound: COc1nc(OC(F)(F)F)c(NC(=O)C2CCC3C4CN(C(=O)OC(C)(C)C)C5=CC(=O)CC[C@]5(C)C4CC[C@]23C)cc1Br (stereo partly shown) ; wanted: its Tmax
Response given: 1

====

assay: Lung tissue distribution; details: male, CD-1, mouse, lung, po, 5 mg/kg, t1/2 Lung PO, PO 5 mg/kg
Property: half-life (h)
Give the quantity in h, number only.

Challenge: # input molecule: COc1nc(OC(F)(F)F)c(NC(=O)C2CCC3C4CN(C(=O)OC(C)(C)C)C5=CC(=O)CC[C@]5(C)C4CC[C@]23C)cc1Br (stereo partly shown) ; wanted: its half-life
Response given: 5.8

====

Target: CYP2D6 (Homo sapiens, UniProt P10635)
Construct: using pooled male and female human liver microsomes; from tissue; host or cells: pooled human liver microsomes
Sequence (P10635 whole entry): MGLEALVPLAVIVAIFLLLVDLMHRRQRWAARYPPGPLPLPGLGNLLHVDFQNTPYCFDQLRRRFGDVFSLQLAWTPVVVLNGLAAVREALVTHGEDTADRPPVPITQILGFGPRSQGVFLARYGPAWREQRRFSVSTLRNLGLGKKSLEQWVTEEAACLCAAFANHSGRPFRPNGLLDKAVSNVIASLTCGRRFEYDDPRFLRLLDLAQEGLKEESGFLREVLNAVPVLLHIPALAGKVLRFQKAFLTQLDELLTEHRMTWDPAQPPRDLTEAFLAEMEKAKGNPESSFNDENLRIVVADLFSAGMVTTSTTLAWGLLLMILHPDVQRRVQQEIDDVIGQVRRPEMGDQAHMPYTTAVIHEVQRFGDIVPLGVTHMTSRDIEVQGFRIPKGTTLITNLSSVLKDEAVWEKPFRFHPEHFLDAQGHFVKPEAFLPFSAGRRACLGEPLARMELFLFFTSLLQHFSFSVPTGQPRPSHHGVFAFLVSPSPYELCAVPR
Experiment: in vitro
Type: in vitro ADME
Conditions: both sexes, microsomes, read-out: % Inhibition 2D6
Description: The potential for inhibtion of CYP enzymes (CYP1A2, CYP2A6, CYP2B6, CYP2C8, CYP2C9, CYP2C19, CYP2D6, CYP2E1 and CYP3A4) by 107 at 10 μM were using pooled male and female human liver microsomes, Freshly plated human microsomes with substrate to each CYP enzyme was treated with 107 for 5-20 min. The concentrations of marker metabolites of known substrates were determined by LCMS analysis. The inhibition of CYP enzymes by 107 was evaluated in human liver microsomes (Table 11).
Property: inhibition at 10 µM
Respond with the figure and its unit, in that order.

Challenge: # input compound: COc1nc(OC(F)(F)F)c(NC(=O)C2CCC3C4CN(C(=O)OC(C)(C)C)C5=CC(=O)CC[C@]5(C)C4CC[C@]23C)cc1Br (stereo partly shown) [Compound 107] ; wanted: its inhibition at 10 µM
Response given: 4.4%

====

molecular target: CYP2C9 (Homo sapiens, UniProt P11712); construct: using pooled male and female human liver microsomes; from tissue; host or cells: pooled human liver microsomes; experiment: in vitro; type: in vitro ADME; conditions: both sexes, microsomes, read-out: % Inhibition 2C9
Sequence (P11712 whole entry): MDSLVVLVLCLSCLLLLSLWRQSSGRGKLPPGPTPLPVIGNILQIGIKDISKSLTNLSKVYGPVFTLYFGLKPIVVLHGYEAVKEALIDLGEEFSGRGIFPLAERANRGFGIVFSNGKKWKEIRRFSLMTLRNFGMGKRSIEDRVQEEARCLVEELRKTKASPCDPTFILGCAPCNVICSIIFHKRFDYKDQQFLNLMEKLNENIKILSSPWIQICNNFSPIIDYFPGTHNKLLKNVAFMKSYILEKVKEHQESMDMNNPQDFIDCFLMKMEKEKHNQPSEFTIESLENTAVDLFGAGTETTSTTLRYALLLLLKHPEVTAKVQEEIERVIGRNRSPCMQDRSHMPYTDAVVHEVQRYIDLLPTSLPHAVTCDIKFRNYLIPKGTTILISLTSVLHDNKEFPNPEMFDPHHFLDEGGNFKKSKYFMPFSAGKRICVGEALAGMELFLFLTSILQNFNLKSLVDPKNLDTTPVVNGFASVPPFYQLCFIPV
Property: inhibition at 10 µM (%)
Give the quantity in %, number only.

Challenge: # input molecule: COc1nc(OC(F)(F)F)c(NC(=O)C2CCC3C4CN(C(=O)OC(C)(C)C)C5=CC(=O)CC[C@]5(C)C4CC[C@]23C)cc1Br (stereo partly shown) [Compound 107] ; wanted: its inhibition at 10 µM
Response given: 33.1

====

molecular target: CYP3A4 (Homo sapiens); construct: using pooled male and female human liver microsomes; from tissue; host or cells: pooled human liver microsomes; experiment: Inhibition of CYPs in human liver microsomes, CYP3A4; format: in vitro ADME; details: both sexes, human, microsomes, 107 at 10 μM, either midazolam or testosterone as substrate; read-out: inhibition of CYP 3A4
Property: inhibition at 10 µM (%)
Give the quantity in %, number only.

Challenge: # input molecule: COc1nc(OC(F)(F)F)c(NC(=O)C2CCC3C4CN(C(=O)OC(C)(C)C)C5=CC(=O)CC[C@]5(C)C4CC[C@]23C)cc1Br (stereo partly shown) ; wanted: its inhibition at 10 µM
Response given: 30

====

experiment: in vivo; conditions: male, CD-1, mouse, po, 5 mg/kg
Property: Tmax (h)
Give the quantity in h, number only.

Challenge: # input compound: COc1nc(OC(F)(F)F)c(NC(=O)C2CCC3C4CN(C(=O)OC(C)(C)C)C5=CC(=O)CC[C@]5(C)C4CC[C@]23C)cc1Br (stereo partly shown) [Compound 107] ; wanted: its Tmax
Response given: 1

====

assay: Lung tissue distribution; settings: male, CD-1, mouse, lung, iv, 1 mg/kg, t1/2 Lung IV, IV 1 mg/kg
Property: half-life (h)
Give the quantity in h, number only.

Challenge: # input molecule: COc1nc(OC(F)(F)F)c(NC(=O)C2CCC3C4CN(C(=O)OC(C)(C)C)C5=CC(=O)CC[C@]5(C)C4CC[C@]23C)cc1Br (stereo partly shown) ; wanted: its half-life
Response given: 6.88

====

assay: in vitro; type: cell-based; conditions: human
Property: IC50 at 3 days

Challenge: # input molecule: COc1nc(OC(F)(F)F)c(NC(=O)C2CCC3C4CN(C(=O)OC(C)(C)C)C5=CC(=O)CC[C@]5(C)C4CC[C@]23C)cc1Br (stereo partly shown) ; wanted: its IC50 at 3 days
Response given: > 30 µM

====

test: in vitro; conditions: both, human, microsomes, pH 7.4
Form field: microsomal CLint at 2 μM (one value per entry).
Respond with the figure and its unit, in that order.

Here are 2 compounds together with their reported answers.
INSERT INTO measurements (compound, endpoint_value) VALUES
  ('CCCN1CC2C(CC[C@@]3(C)C2CC[C@@H]3C(=O)Nc2cc(C(C)(C)C)ccc2C(C)(C)C)[C@@]2(C)CCC(=O)C=C12 (stereo partly drawn) [Compound 114]', '73.2 µL/min/mg'),
  ('COc1nc(OC(F)(F)F)c(NC(=O)C2CCC3C4CN(C(=O)OC(C)(C)C)C5=CC(=O)CC[C@]5(C)C4CC[C@]23C)cc1Br (stereo partly drawn) [Compound 107]', '15 µL/min/mg');

Proceeding to the next compound to report its microsomal CLint at 2 μM.
Challenge: # input compound: CC(C)(C)c1ccc(C(C)(C)C)c(NC(=O)[C@H]2CCC3C4CNC5=CC(=O)CC[C@]5(C)C4CC[C@@]32C)c1 (stereo partly drawn) [Compound 100] ; wanted: its microsomal CLint at 2 μM
Response given: 29.9 µL/min/mg

====

molecular target: CYP2A6 (Homo sapiens); construct: using pooled male and female human liver microsomes; from tissue; host or cells: pooled human liver microsomes; experiment: in vitro; format: in vitro ADME; conditions: both sexes, microsomes, read-out: % Inhibition 2A6
Sequence (P11509 whole entry): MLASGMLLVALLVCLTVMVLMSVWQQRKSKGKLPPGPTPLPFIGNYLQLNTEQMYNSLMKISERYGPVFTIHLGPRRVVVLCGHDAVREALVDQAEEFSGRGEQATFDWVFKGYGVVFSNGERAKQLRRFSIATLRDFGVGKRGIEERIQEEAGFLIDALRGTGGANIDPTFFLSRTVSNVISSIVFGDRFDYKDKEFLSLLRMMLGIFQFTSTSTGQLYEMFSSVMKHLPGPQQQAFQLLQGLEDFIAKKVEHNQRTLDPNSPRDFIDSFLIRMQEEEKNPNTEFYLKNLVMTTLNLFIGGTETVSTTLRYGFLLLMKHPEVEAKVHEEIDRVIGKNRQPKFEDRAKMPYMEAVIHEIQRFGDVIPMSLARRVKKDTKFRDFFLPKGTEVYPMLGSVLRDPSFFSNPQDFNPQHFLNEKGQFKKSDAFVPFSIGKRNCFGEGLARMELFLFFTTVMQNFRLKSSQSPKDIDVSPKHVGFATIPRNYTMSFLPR
Property: inhibition at 10 µM (%)
Give the quantity in %, number only.

Challenge: # input compound: COc1nc(OC(F)(F)F)c(NC(=O)C2CCC3C4CN(C(=O)OC(C)(C)C)C5=CC(=O)CC[C@]5(C)C4CC[C@]23C)cc1Br (stereo partly shown) ; wanted: its inhibition at 10 µM
Response given: 16.5

====

molecular target: CYP2B6 (Homo sapiens); construct: using pooled male and female human liver microsomes; from tissue; host or cells: pooled human liver microsomes; test: in vitro; assay type: in vitro ADME; conditions: both sexes, microsomes, read-out: % Inhibition 2B6
Sequence (P20813 whole entry): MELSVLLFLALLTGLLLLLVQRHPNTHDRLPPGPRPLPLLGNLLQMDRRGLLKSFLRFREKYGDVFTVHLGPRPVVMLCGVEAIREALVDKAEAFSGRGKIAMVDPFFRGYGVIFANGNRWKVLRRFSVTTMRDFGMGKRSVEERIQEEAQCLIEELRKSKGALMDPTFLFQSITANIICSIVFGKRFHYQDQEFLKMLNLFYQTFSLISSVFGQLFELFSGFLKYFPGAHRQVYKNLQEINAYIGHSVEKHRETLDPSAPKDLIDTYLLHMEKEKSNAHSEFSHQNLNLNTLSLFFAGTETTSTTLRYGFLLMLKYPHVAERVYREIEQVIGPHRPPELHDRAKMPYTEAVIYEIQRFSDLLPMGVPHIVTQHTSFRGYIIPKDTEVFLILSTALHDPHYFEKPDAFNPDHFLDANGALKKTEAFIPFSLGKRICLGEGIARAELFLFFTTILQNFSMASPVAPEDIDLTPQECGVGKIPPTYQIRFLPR
Property: inhibition at 10 µM (%)
Give the quantity in %, number only.

Challenge: # input compound: COc1nc(OC(F)(F)F)c(NC(=O)C2CCC3C4CN(C(=O)OC(C)(C)C)C5=CC(=O)CC[C@]5(C)C4CC[C@]23C)cc1Br (stereo partly shown) ; wanted: its inhibition at 10 µM
Response given: 0
